Where these numbers come from: paper PMC12040169

Reported viability at 28.5 h, 10 µM is given for each of the following compounds.
# protocol-description: in vitro
# conditions: human, hela cells, % viability
metric-name: viability at 28.5 h, 10 µM (%)

| compound | reported |
| --- | --- |
| Cc1nn(CCC#N)c(C)c1CCC(=O)NCc1cn2ccccc2n1 | 88.1 |
| COc1ccc(C(NC(=O)C2CCN(C(=O)NC(C)(C)C)CC2)c2ccccn2)cc1 (centres unmarked) | 112 |
| COc1ccc(-c2cnn3c(N)c4c(nc23)CCC4)cc1 | 97.4 |
| c1ccc2[nH]c(CCc3nc4ccccc4[nH]3)nc2c1 | 111 |
| O=C(Nc1ccc2oc(-c3cccnc3)nc2c1)c1ccc(-c2cccc([N+](=O)[O-])c2)o1 | 106 |
